// data source = patent US12624118B2

Could you please report measured Tm (° C.) By Differential Scanning Calorimetry (DSC) for the items listed next?
Assay method text: Thermal stability by differential scanning calorimetry (DSC)
Type: physicochemical
Run conditions: HBS, 0.5 mg/mL; 25° C. to 100° C. at 1° C./minute
Hi! Could you send only the number? It should be in °C, unit omitted.

I'd like to know its Tm (° C.) By Differential Scanning Calorimetry (DSC). The molecule in question is IgV V54C_G88C: CD58 domain 1 with V54 and G88 replaced by cysteines to form a disulfide bridge (protein) SQQIYGVVYGNVTFHVPSNVPLKECLWKKQKDKVAELENSEFRAFSSFKNRVYLDTVSCSLTIYNLTSSDEDEYEMESPNITDTMKFFLYVLESGGGGSHHHHHHHH
80.9

Which Tm (° C.) By Differential Scanning Calorimetry (DSC) is listed for CD58_IgV: IgV domain (domain 1) of human CD58, without stabilizing disulfide (protein) SQQIYGVVYGNVTFHVPSNVPLKEVLWKKQKDKVAELENSEFRAFSSFKNRVYLDTVSGSLTIYNLTSSDEDEYEMESPNITDTMKFFLYVLESGGGGSHHHHHHHH ?
60.9

Endpoint output: Tm (° C.) By Differential Scanning Calorimetry (DSC) of IgV V45C_M114C: CD58 domain 1 with V45 and M114 replaced by cysteines to form a disulfide bridge (protein) SQQIYGVVYGNVTFHCPSNVPLKEVLWKKQKDKVAELENSEFRAFSSFKNRVYLDTVSGSLTIYNLTSSDEDEYEMESPNITDTCKFFLYVLESGGGGSHHHHHHHH . Value?
72.5
